Attribution: paper PMC6792352

# testDescription: in vitro
# assayConditions: rat, gh3-tre-luc cells, AC50 (uM) modified / 1000, Tox21_110001=Tox21_200336; viability, 1 nM T3 present, 24 h
readoutName: CC50 at 24 h

Exam item: Give the measured CC50 at 24 h of CC(C)(Cl)[N+](=O)[O-] [2-Chloro-2-nitropropane] .
Marked response: > 90 µM

###

# testDescription: in vitro
# assayConditions: rat, gh3-tre-luc cells, AC50 (uM) modified / 1000, Tox21_110001=Tox21_300718; viability, 1 nM T3 present, 24 h
readoutName: CC50 at 24 h

Exam item: Give the measured CC50 at 24 h of CCN(CC)c1nc(C)cc(OP(=S)(OC)OC)n1 [Pirimiphos-methyl] .
Marked response: > 90 µM

###

# testDescription: in vitro
# assayConditions: rat, gh3-tre-luc cells, AC50 (uM) modified / 1000
Where a name gives a salt, the structure may show the parent alone.
readoutName: CC50 at 24 h

Worked cases, CC50 at 24 h given:
molecule	readoutName	result
c1ccc2c(c1)CCNC2 [1,2,3,4-Tetrahydroisoquinoline]	CC50 at 24 h	> 90 µM
CC(=O)O[C@H]1CC[C@@]2(C)C(=CC[C@@H]3[C@@H]2CC[C@]2(C)C(c4cccnc4)=CC[C@@H]32)C1 [Abiraterone acetate]	CC50 at 24 h	> 50 µM
CCC(C)N (centres unmarked)	CC50 at 24 h	> 90 µM
CC(C)CCCC(=O)O	CC50 at 24 h	> 90 µM
CCCCCCCN(CC)CCCC(O)c1ccc(NS(C)(=O)=O)cc1 (centres unmarked) [Ibutilide fumarate]	CC50 at 24 h	21.5 µM

Each of the following entries comes with a recorded value; kindly state CC50 at 24 h for each.
1. FC(F)(F)C(F)(F)C(F)(F)C(F)(F)C(F)(F)C(F)(F)CCI [1H,1H,2H,2H-Perfluorooctyl iodide]
2. O=S(=O)(O)c1ccc(N=Nc2c(O)ccc3ccccc23)cc1
3. CN(C[C@@H](CC[N+]12CCC(C3CCCCC3)(CC1)CC2)c1ccc(Cl)c(Cl)c1)C(=O)c1cc(C(F)(F)F)cc(C(F)(F)F)c1

Marked response:
["> 50 µM", "44.3 µM", "17 µM"]

###

# Tested on: GH3-TRE-Luc cell line
# assayConditions: read-out: AC50 (uM) modified / 1000; Tox21_110001=Tox21_303110; viability, 1 nM T3 present, 24 h
readoutName: CC50
Enter the number, and then the unit.

Exam item: Give the measured CC50 of C1CN(SSN2CCOCC2)CCO1 .
Marked response: 49.5 µM

###

# Tested on: GH3-TRE-Luc cell line
# assayConditions: read-out: AC50 (uM) modified / 1000; Tox21_110001=Tox21_111097; viability, 1 nM T3 present, 24 h
readoutName: CC50 (µM)
Answers are plain numbers, in µM.

Exam item: Give the measured CC50 of O=c1n(CC2CO2)c(=O)n(CC2CO2)c(=O)n1CC1CO1 (stereo not shown) [Triglycidyl isocyanurate] .
Marked response: 26.2

###

# testDescription: in vitro
# assayConditions: rat, gh3-tre-luc cells, AC50 (uM) modified / 1000, Tox21_110001=Tox21_201109; viability, 1 nM T3 present, 24 h
readoutName: CC50 at 24 h

Exam item: Give the measured CC50 at 24 h of ClCC(Cl)(Cl)Cl .
Marked response: > 100 µM
